Measured percent inhibition of viability values are reported for all entries that follow.
Test system: KHYG-1 (IL-2 2.5 ng/mL)
Test: percent inhibition of viability; higher = more inhibition
Settings: 72 h; 2500 nM
Supply the numeric figure in %, leaving out any unit text.

Field: example entries. Status: answers known.
molecule	test.system	percent inhibition of viability, %
NC(=O)Nc1sc(-c2ccc(F)cc2)cc1C(N)=O [TPCA-1] (max concentration tested 25000 nM)	KHYG-1 (IL-2 2.5 ng/mL)	101
CCCNC(=O)Nc1ccc(Oc2ncnc3cc(OC)c(OC)cc23)cc1Cl [KRN-633] (max concentration tested 2500 nM)	KHYG-1 (IL-2 2.5 ng/mL)	8.1
Nc1nc(NC2CC2)cc(-c2cccc(Cl)c2Cl)n1 [TH588] (max concentration tested 25000 nM)	KHYG-1 (IL-2 2.5 ng/mL)	58.7
CN1CCN(C2CCN(C(=O)Nc3cc(Oc4ccc(NC(=O)C5(C(=O)Nc6ccc(F)cc6)CC5)c(F)c4)ccn3)CC2)CC1 [Golvatinib] (max concentration tested 2500 nM)	KHYG-1 (IL-2 2.5 ng/mL)	52.1

Would you mind telling me what percent inhibition of viability value was observed for CCOc1cc2ncc(C#N)c(Nc3ccc(F)c(Cl)c3)c2cc1NC(=O)/C=C/CN(C)C [Pelitinib] (max concentration tested 2500 nM) ?
101

###

Measured percent inhibition of viability values are reported for all entries that follow.
System: DERL-7 (IL-2 2.5 ng/mL)
Experiment: percent inhibition of viability; higher = more inhibition
Conditions: 72 h; 2500 nM
Supply the numeric figure in %, leaving out any unit text.

Field: example entries. Status: answers known.
molecule	percent inhibition of viability [%]
CCCNC(=O)Nc1ccc(Oc2ncnc3cc(OC)c(OC)cc23)cc1Cl [KRN-633] (max concentration tested 2500 nM)	1.83
CCn1nnc2c(N3CCOCC3)nc(-c3ccc(NC(=O)Nc4ccc(C(=O)N5CCN(C)CC5)cc4)cc3)nc21 [PKI-402] (max concentration tested 2500 nM)	93.8
CN1CCN(C2CCN(C(=O)Nc3cc(Oc4ccc(NC(=O)C5(C(=O)Nc6ccc(F)cc6)CC5)c(F)c4)ccn3)CC2)CC1 [Golvatinib] (max concentration tested 2500 nM)	15.2

Now turn to the next molecule.
Would you mind telling me what percent inhibition of viability value was observed for CCOc1cc2ncc(C#N)c(Nc3ccc(F)c(Cl)c3)c2cc1NC(=O)/C=C/CN(C)C [Pelitinib] (max concentration tested 2500 nM) ?
99.9

###

Test system: DERL-7 (IL-2 2.5 ng/mL)
Assay: drug sensitivity score (DSS) (DSS units); higher = more sensitive; extreme values may be limits of the assay
Conditions: 72 h
endpoint.name: drug sensitivity score
No unit in the answer, please; the number alone is enough.

compound	value
C[C@]12CC[C@H](O)CC1=CC[C@@H]1[C@@H]2CC[C@]2(C)C(c3cccnc3)=CC[C@@H]12 [Abiraterone] (max concentration tested 5000 nM)	0
O=C(CCBr)N1CCN(C(=O)CCBr)CC1 [Pipobroman] (max concentration tested 10000 nM)	0
O=[N+]([O-])c1ccc2c(c1)S(=O)(=O)C=C2 [Stattic] (max concentration tested 50000 nM)	19.4
CO[C@H]1/C=C\C=C(/C)C(=O)NC2=CC(=O)C(NCCN(C)C)=C(C[C@@H](C)C[C@H](OC)[C@H](O)[C@@H](C)/C=C(\C)[C@@H]1OC(N)=O)C2=O [Alvespimycin] (max concentration tested 1000 nM)	15.1
CN1CCN(C2CCN(C(=O)Nc3cc(Oc4ccc(NC(=O)C5(C(=O)Nc6ccc(F)cc6)CC5)c(F)c4)ccn3)CC2)CC1 [Golvatinib] (max concentration tested 2500 nM)	0.2

Please state recorded drug sensitivity score (tested on DERL-7 (IL-2 2.5 ng/mL)) of Nc1cccc2c1CN(C1CCC(=O)NC1=O)C2=O (stereo unspecified) [Lenalidomide] (max concentration tested 100000 nM)
0

Okay, and Cc1cc(Nc2cc(N3CCN(C)CC3)nc(/C=C/c3ccccc3)n2)n[nH]1 [ENMD-2076] (max concentration tested 10000 nM) ?
15
